Taken from ChEMBL document CHEMBL1201862.

Form field: GI50 (one value per entry).
test system: A549; assay: NCI tumour cell line growth inhibition, 48 h
The source made the active and inactive calls. Rule as the data show it: active = GI50 up to about 1.1 µM and inactive = higher.
readout: GI50

molecule | tested.system | result
O=[N+]([O-])c1ccc(-n2nc3ccc4nonc4c3n2)cc1 | A549 | 72.1 µM (inactive)
Cc1nnc2c3nnc(C)n3c3ccccc3n12 | A549 | > 100 µM (inactive)
COC(=O)CC(NC(=O)OCc1ccccc1)C(C(=O)OCc1ccccc1)C(C)(OC)OC (stereo not drawn) | A549 | 17.3 µM (inactive)

====

// values below are GI50; system is HCT-15
Numbered stars: 1 amine (or outer) side, 2 acyl side, 3 side chain; on linkers, the order of the positions; unused ones are H or OH. Bridge positions count the residues as written; N and C are the ends. Square brackets hold non-standard residues; d marks the D form. Peptide text beside a SMILES is read from it. I, II: the chains in the order shown. Actinocin(9to1) = Cc1c2oc3c(C)ccc(C(=O)[*:1])c3nc-2c(C(=O)[*:2])c(N)c1=O; NMeH = CN[CH](Cc1c[nH]cn1)C(=O)O; Sar = CNCC(=O)O

molecule | GI50
CN(Cc1ccccc1)C1(N(C)Cc2ccccc2)CC1 | > 100 µM
CC(C)(C)c1cc([Si](C)(C)C)c(C#N)c([Si](C)(C)C)c1 | > 100 µM
CC(C)(c1ccc(Oc2ccc(C#N)c(C#N)c2)cc1)c1ccc(Oc2ccc(C#N)c(C#N)c2)cc1 | > 10 µM
Cc1c(C#N)c2nnn(C)c(=O)n2c1-c1ccccc1 | > 100 µM
NC(=O)CCC(NC(=O)C(F)(F)F)C(=O)O (stereo not drawn) | > 100 µM
C=CC/N=C1\N=C(C)C(C(=O)OCC)S1 (stereo not drawn) | > 100 µM
O=C1NC(N2CCCCC2)=N/C1=C\c1ccccc1O | > 100 µM
Cc1cc(O)nc(NNC(C#N)c2cccc([N+](=O)[O-])c2)n1 (stereo not drawn) | > 100 µM
COC(=O)c1cncc2c1CC1C3(C(=O)OC)C=NC(C4C(CO)=CCC43)C21C (stereo not drawn) | > 100 µM
[O-][Cl+3]([O-])([O-])[O-].c1ccc(-c2[o+]c(-c3ccccc3)c(-c3ccccc3)c(-c3ccccc3)c2-c2ccccc2)cc1 | > 100 µM
COc1cc(Nc2nc3cc(C(F)(F)F)ccc3n3cccc23)cc(OC)c1OC | > 100 µM
CC(C)N(C(=O)C12CC3CC(CC(C3)C1)C2)C(C)C | > 50 µM
CC1(C)OCC(COC(=O)C=[N+]=[N-])O1 (stereo not drawn) | > 100 µM
CCOC(=O)CC(=O)NC1CC2CCC1(C)C2(C)C (stereo not drawn) | > 100 µM
C=CCC(CC=O)(C(=O)OCC)C(=O)OCC | > 100 µM
Cc1c2oc3c(C)ccc(C(=O)NC4C(=O)NC(C(C)C)C(=O)N5CCCC5C(=O)N(C)CC(=O)N(C)C(Cc5cnc[nH]5)C(=O)OC4C)c3nc-2c(C(=O)NC2C(=O)NC(C(C)C)C(=O)N3CCCC3C(=O)N(C)CC(=O)N(C)C(Cc3cnc[nH]3)C(=O)OC2C)c(N)c1=O (stereo not drawn) (I: TVP[Sar][NMeH] / II: TVP[Sar][NMeH]; ester I:1-I:C, II:1-II:C; linker I:N-II:N via Actinocin(9to1); configuration not given here) | > 100 µM
Cc1ccc(Cn2c(C)nc3c2C(=O)c2ccccc2C3=O)cc1 | 0.619 µM
Cc1cccc(N(C(=O)Nc2ccc(Cl)c(Cl)c2)C2=NCC(C)S2)c1 (stereo not drawn) | 41.6 µM
N#CCC(=O)Nc1cccc(C(F)(F)F)c1 | > 100 µM
N#CC1=C(N)OC2=C(CCCc3ccc([N+](=O)[O-])cc32)C1c1ccccc1 (stereo not drawn) | 2.45 µM
O=C1C[C@H](Sc2ccccc2)C2(OCCO2)[C@H]2ON3CCC[C@@H]3[C@@H]12 | 0.59 µM
O=C1/C(=N\NC(=S)NC2CCCCC2)c2cc([N+](=O)[O-])ccc2N1CN1CCOCC1 | 2.39 µM
COP(=O)(OC)C(C)(C)NC(=O)NC(F)(F)F | > 100 µM
